Target of assay: T1, cynomolgus CD3 (cynomolgus (Macaca fascicularis), UniProt Q95LI5 22-198; Q95LI8 22-171; Q95LI7 23-181)
T1 construct: whole, on cells; composition of the 'mix' not defined; also called cynoCD3
T1 sequence (Q95LI5 22-198, chain 1 of 3): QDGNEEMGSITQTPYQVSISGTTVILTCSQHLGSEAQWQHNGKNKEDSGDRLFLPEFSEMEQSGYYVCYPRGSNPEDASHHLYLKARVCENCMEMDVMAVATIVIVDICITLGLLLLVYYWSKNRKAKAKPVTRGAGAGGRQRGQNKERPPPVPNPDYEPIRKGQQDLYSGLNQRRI
T1 sequence (Q95LI8 22-171, chain 2 of 3): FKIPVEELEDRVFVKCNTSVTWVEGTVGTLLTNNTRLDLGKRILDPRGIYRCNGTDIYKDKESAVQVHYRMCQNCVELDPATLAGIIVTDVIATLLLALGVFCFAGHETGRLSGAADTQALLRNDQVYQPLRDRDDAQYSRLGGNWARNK
T1 sequence (Q95LI7 23-181, chain 3 of 3): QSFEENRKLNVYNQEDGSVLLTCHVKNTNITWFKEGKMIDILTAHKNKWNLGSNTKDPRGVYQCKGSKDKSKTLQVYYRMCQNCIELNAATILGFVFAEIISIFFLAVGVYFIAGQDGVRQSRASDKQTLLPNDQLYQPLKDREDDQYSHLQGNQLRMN
Assay details: FACS on 293T-cynoCD3mix cells
Note to self: values exactly at 50000 are met. So Top signal at or above 50000 is met, below is not met.

ch140D2B10 (antibody, V domains shown) VH: QVQLQQPGTELVKPGASVKLSCKASGYTFTSYWMHWVKQRPGQGLEWIGNINPSNGESNYNEKFKSKATLTVDKSSSTAYMQLSSLTSEDYAVYYCARDRSSQYYFDYWGQGTTLTVSS VL: DIVMSQSPSSLAVSAGEKVTMSCKSSQSLLNSRTRKNYLAWYQQKPGQSPKLLIYWASTRESGVPDRFTGSGSGTDFTLTISSVQAEDLAVYYCKQSYTLRTFGGGTKLEIK : met
BMK-B219 (antibody, V domains shown, benchmark anti-CD3 antibody; also called anti-CD3 antibody developed by JNJ (Johnson & Johnson)) VH: EVQLVESGGGLVQPGGSLRLSCAASGFTFNTYAMNWVRQAPGKGLEWVARIRSKYNNYATYYAASVKGRFTISRDDSKNSLYLQMNSLKTEDTAVYYCARHGNFGNSYVSWFAYWGQGTLVTVSS VL: QTVVTQEPSLTVSPGGTVTLTCRSSTGAVTTSNYANWVQQKPGQAPRGLIGGTNKRAPGTPARFSGSLLGGKAALTLSGVQPEDEAEYYCALWYSNLWVFGGGTKLTVL : met
ch133B4C7 (antibody, V domains shown) VH: QVQLQQPGTELVKPGASVKLSCKASGYTFTSYWMHWVKQRPGQGLEWIGNINPSNGDTNFNEKFKSKATLTVDKSSSTAYMQLSSLTSEDSAVYYCARDRSSQYYFDYWGQGTTLTVSS VL: DIVMSQSPSSLAVSAGEKVTMSCNSSQSLLNSRTRKNYLAWYQQKPGQSPKLLIYWASTRESGVPDRFTGSGSGTDFTLTISSVQAEDLAVYYCKQSYTLRTFGGGTKLEIK : not met
ch147E11E2 (antibody, V domains shown) VH: QVQLQQPGTELVKPGTSVKLSCKASGYTFTSYWMHWVKQRPGQGLEWIGNINPSNGATNYNEKFKSKATLTVDKSSSTAYMQLSSLTSEDSAVYYCARDRSSQYYFDYWGQGTTLTVSS VL: DIVMSQSPSSLAVSAGEKVTMSCKSSQSLLNSRSRKNYLAWYQQKPGQSPKLLIYWASTRESGVPDRFTGSGSGTDFTLTISSVQAEDLAVYYCTQSYTLRTFGGGTKLEIK : met
ch127E2D3 (antibody, V domains shown) VH: QVQLQQPGTELVKPGASVKLSCKASGYTFTSYWMHWVKQRPGEGLEWIGNIYPGSSSINYNEKFKSKATLTVDKSSSTAYMQLSSLTSEDSAVYYCARDRSSQYYFDYWGQGTTLTVSS VL: DIVMSQSPSSLAVSAGEKVTMSCKSSQSLLNSRTRKNYLAWYQQKPGQSPKLLIYWASTRESGVPDRFTGSGSGTDFTLTISSVQAEDLAVYYCTQSYNLRTFGGGTKLEIK : not met

src = patent US20250223358A1
